test system: P19; experiment: Cytotoxicity against undifferentiated mouse P19 cells assessed as metabolic activity at 1 to 100 uM after 72 hrs by resazurin assay relative to control; format: functional
Listing of entries alongside the reported Activity.
observable: Activity

[[record]]
compound = "O=C(c1ccc2c(c1)C(=O)N(CCO)C2=O)c1ccc2c(c1)C(=O)N(CCO)C2=O"
observed_measurement = "113.8%"

[[record]]
compound = "O=C(c1ccc2c(c1)C(=O)N(CCCO)C2=O)c1ccc2c(c1)C(=O)N(CCCO)C2=O"
observed_measurement = "100%"

[[record]]
compound = "OC[C@H]1OC(O)C[C@@H](O)[C@@H]1O (stereo partly drawn)"
observed_measurement = "101.3%"

[[record]]
compound = "O=C(c1ccc2c(c1)C(=O)N(c1nc[nH]n1)C2=O)c1ccc2c(c1)C(=O)N(c1nc[nH]n1)C2=O"
observed_measurement = "53.2%"

[[record]]
compound = "O=C(c1ccc2c(c1)C(=O)N(c1ccc(O)cc1)C2=O)c1ccc2c(c1)C(=O)N(c1ccc(O)cc1)C2=O"
observed_measurement = "79.9%"

[[record]]
compound = "O=C(c1ccc2c(c1)C(=O)N(c1ccccc1O)C2=O)c1ccc2c(c1)C(=O)N(c1ccccc1O)C2=O"
observed_measurement = "101.2%"

[[record]]
compound = "O=C(c1ccc2c(c1)C(=O)N(c1cccc(O)c1)C2=O)c1ccc2c(c1)C(=O)N(c1cccc(O)c1)C2=O"
observed_measurement = "59.8%"

[[record]]
compound = "O=C(c1ccc2c(c1)C(=O)N(c1c[nH]c(=O)[nH]c1=O)C2=O)c1ccc2c(c1)C(=O)N(c1c[nH]c(=O)[nH]c1=O)C2=O"
observed_measurement = "109.6%"

